Target: PYL10 (Arabidopsis thaliana, UniProt Q8H1R0)
Construct: 6X-His; made in house; host or cells: E. coli BL21[DE3]pLysS
Sequence (Q8H1R0 whole entry, one chain of several): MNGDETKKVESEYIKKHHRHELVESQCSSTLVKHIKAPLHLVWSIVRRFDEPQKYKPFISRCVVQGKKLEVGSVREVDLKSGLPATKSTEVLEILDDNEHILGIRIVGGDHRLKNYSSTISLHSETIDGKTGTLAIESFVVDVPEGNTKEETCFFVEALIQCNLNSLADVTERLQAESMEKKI
Assay: receptor-mediated PP2C (HAB1) inhibition in vitro assay
Format: biochemical
Settings: Table VII; read-out: PP2C Dose Curves PYL10 (IC50)
Procedure: A family of 62 structurally related N-acyl sulfonamides (Tables I-V) were tested for ABA agonist activity using multiple receptor-mediated PP2C inhibition in vitro assays (Park et al., 2009). […] For these in vitro receptor assays, the compounds listed were tested in in vitro PP2C inhibition assays with 50 uM of the test compound except for ABA (10 uM). IC50s were calculated from dose curves, but only for selected compounds.
quantity: IC50 (µM)

get_value(item= `N#Cc1ccc(CS(=O)(=O)NC(=O)C2(c3ccc(F)cc3)CCCC2)cc1` , readout=IC50) returns 14.8

(a) N#Cc1ccc(CS(=O)(=O)NC(=O)C2(c3ccc(F)cc3)CCCCC2)cc1
(b) CC(C)(C(=O)NS(=O)(=O)Cc1ccc(C#N)cc1)c1cccc(C#N)c1
Which value of IC50 is numerically greater: that of a or that of b ? Reply briefly: the label of your chosen item.
b
(b: 31.5 µM, a: 4.46 µM)

----------
target: PYL4 (Arabidopsis thaliana, UniProt O80920); construct: 6X-His; made in house; host or cells: E. coli BL21[DE3]pLysS; test: receptor-mediated PP2C (HAB1) inhibition in vitro assay; format: biochemical; details: compound at 25 μM; control without agonist = 100%
Sequence (O80920 whole entry, one chain of several): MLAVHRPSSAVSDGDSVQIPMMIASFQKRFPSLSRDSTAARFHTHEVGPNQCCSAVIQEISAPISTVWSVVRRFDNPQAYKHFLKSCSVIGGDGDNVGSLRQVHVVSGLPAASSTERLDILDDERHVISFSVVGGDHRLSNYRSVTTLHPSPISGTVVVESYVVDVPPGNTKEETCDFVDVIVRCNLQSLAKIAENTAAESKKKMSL
quantity: remaining activity at 25 µM (%)

Lab note: measured remaining activity at 25 µM of `CC(C)(C(=O)NS(=O)(=O)Cc1ccc(C#N)cc1)c1ccc(Cl)cc1` was 90

Record `Cc1ccccc1C1(C(=O)NS(=O)(=O)Cc2ccc(C#N)cc2)CC1` , field remaining activity at 25 µM: 89

GET /value?item= `N#Cc1ccc(CS(=O)(=O)NC(=O)C2(c3ccc(F)cc3)CCCC2)cc1` &field=remaining activity at 25 µM returns 92

----------
Target: PYL9 (Arabidopsis thaliana, UniProt Q84MC7)
Construct: 6X-His; made in house; host or cells: E. coli BL21[DE3]pLysS
Sequence (Q84MC7 1-187): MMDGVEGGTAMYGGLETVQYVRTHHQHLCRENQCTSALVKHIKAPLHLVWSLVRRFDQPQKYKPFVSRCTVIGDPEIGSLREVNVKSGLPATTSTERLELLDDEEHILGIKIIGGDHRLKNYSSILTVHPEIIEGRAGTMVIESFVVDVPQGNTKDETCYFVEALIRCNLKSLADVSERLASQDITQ
Sequence (Q9CAJ0 23-511 partner): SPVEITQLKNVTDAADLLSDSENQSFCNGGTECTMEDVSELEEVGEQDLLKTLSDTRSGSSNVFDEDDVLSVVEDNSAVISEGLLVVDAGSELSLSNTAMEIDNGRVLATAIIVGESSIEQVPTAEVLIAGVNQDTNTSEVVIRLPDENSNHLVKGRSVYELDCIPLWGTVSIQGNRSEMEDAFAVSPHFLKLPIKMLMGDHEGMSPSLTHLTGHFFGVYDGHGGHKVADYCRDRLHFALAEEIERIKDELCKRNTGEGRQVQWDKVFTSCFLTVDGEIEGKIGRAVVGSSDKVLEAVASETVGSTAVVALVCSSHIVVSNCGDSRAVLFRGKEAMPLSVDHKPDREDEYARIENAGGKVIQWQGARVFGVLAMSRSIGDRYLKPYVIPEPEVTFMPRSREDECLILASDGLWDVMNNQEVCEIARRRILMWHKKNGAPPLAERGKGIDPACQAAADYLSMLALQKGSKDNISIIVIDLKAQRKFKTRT
Test: receptor-mediated PP2C (HAB1) inhibition in vitro assay
Format: biochemical
Details: compound at 25 μM; control without agonist = 100%
quantity: remaining activity at 25 µM (%)

// worked examples, remaining activity at 25 µM included
So the reported remaining activity at 25 µM for `N#Cc1ccc(CS(=O)(=O)NC(=O)C2(c3cccc(C#N)c3)CC2)cc1` , on PYL9 (Arabidopsis thaliana, UniProt Q84MC7), turned out to be 18

Value (remaining activity at 25 µM, PYL9 (Arabidopsis thaliana, UniProt Q84MC7)) for record `N#Cc1ccc(CS(=O)(=O)NC(=O)C2(c3ccccc3)CCC2)cc1` = 14

Reported PYL9 (Arabidopsis thaliana, UniProt Q84MC7) remaining activity at 25 µM for item CC1(C(=O)NS(=O)(=O)Cc2ccc(C#N)cc2)CCCc2ccccc21 (centres unmarked) was 68

Query `COc1ccccc1C1(C(=O)NS(=O)(=O)Cc2ccc(C#N)cc2)CCC1` on PYL9 (Arabidopsis thaliana, UniProt Q84MC7); remaining activity at 25 µM returned: 42

(A) CC(C)(C(=O)NS(=O)(=O)Cc1ccc(C#N)cc1)c1cccc(C#N)c1
(B) N#Cc1ccc(CS(=O)(=O)NC(=O)C2(c3ccc(F)cc3)CCC2)cc1
(C) N#Cc1ccc(CS(=O)(=O)NC(=O)C2(c3cccc(F)c3)CC2)cc1
(D) N#Cc1ccc(CS(=O)(=O)NC(=O)C2(c3ccccc3F)CCCC2)cc1
Order the 4 compounds from highest to lowest remaining activity at 25 µM. Put the labels in the order asked and list them.
C, A, D, B

----------
molecular target: PYL9 (Arabidopsis thaliana, UniProt Q84MC7); construct: 6X-His; made in house; host or cells: E. coli BL21[DE3]pLysS; test: receptor-mediated PP2C (HAB1) inhibition in vitro assay; assay type: biochemical; details: compound at 25 μM; control without agonist = 100%
quantity: PP2C Activity (25 μm) PYL9 (%)

Use these answered entries as a reference point.
# molecule `Cc1cc(C)cc(C2(C(=O)NS(=O)(=O)Cc3ccc(C#N)cc3)CC2)c1` ; its PP2C Activity (25 μm) PYL9 = 94

// PP2C Activity (25 μm) PYL9 value for `N#Cc1ccc(CS(=O)(=O)NC(=O)C2(c3cccc(F)c3)CCOCC2)cc1` : 39

(P) Cc1ccc(C(C)(C)C(=O)NS(=O)(=O)Cc2ccc(C#N)cc2)cc1
(Q) CC(C)COc1ccc(C(C)(C)C(=O)NS(=O)(=O)Cc2ccc(C#N)cc2)cc1
Consider entries P and Q . Which has the numerically lower PP2C Activity (25 μm) PYL9? In your reply, give the label of the chosen option.
P
(P: 47%, Q: 108%)

----------
molecular target: PYL5 (Arabidopsis thaliana, UniProt Q9FLB1); construct: 6X-His; made in house; host or cells: E. coli BL21[DE3]pLysS; assay: receptor-mediated PP2C (HAB1) inhibition in vitro assay; format: biochemical; conditions: Table VII; read-out: PP2C Dose Curves PYL5 (IC50)
Sequence (Q9FLB1 whole entry, one chain of several): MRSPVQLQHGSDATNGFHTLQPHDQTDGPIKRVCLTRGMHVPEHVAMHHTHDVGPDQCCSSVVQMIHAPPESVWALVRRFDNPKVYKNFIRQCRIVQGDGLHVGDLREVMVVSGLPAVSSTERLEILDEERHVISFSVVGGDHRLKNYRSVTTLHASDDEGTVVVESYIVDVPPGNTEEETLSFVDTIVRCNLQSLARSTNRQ
quantity: IC50

Study these solved cases before continuing.
Lab note: measured IC50 of `N#Cc1ccc(CS(=O)(=O)NC(=O)C2(c3ccc(F)cc3)CCCC2)cc1` was > 50 µM

Noted for `CC(C)(C(=O)NS(=O)(=O)Cc1ccc(C#N)cc1)c1ccc(Cl)cc1` : its IC50 reads > 50 µM

Form field IC50, entry `N#Cc1ccc(CS(=O)(=O)NC(=O)C2(c3ccc(F)cc3)CCCCC2)cc1` : > 50 µM

Others:
Query `N#Cc1ccc(CS(=O)(=O)NC(=O)C2(c3ccc(F)cc3)CCC2)cc1` yields IC50 of > 50 µM

Lab book: IC50 of `CC(C)(C(=O)NS(=O)(=O)Cc1ccc(C#N)cc1)c1ccccc1` noted as 39.6 µM

The value of IC50 measured for the compound `CCC(CC)(C(=O)NS(=O)(=O)Cc1ccc([N+](=O)[O-])cc1)c1ccccc1` turned out to be > 50 µM

IC50 reported for this compound `N#Cc1ccc(CS(=O)(=O)NC(=O)C2(c3ccccc3)CCC2)cc1` : > 50 µM

IC50 reported for this compound `N#Cc1ccc(CS(=O)(=O)NC(=O)C2(c3cccc(C#N)c3)CC2)cc1` : 0.39 µM

----------
system: Arabidopsis seed germination and hypocotyl growth; assay: Arabidopsis seed germination and hypocotyl growth; assay type: in vivo; conditions: Arabidopsis thaliana; Germination Effects III; tested at 1, 5, 10, 25 and 50 uM; lowest concentration inhibiting hypocotyl growth; — = none; read-out: Growth Inhibition
# minimal effective concentration per record follows
Report the value in µM with no unit label.

Below are worked cases with known answers.
// minimal effective concentration lookup, compound = N#Cc1ccc(CS(=O)(=O)NC(=O)C2(c3ccccc3)CCCCC2)cc1 [Compound 69] , result: 1

minimal effective concentration measured on CC1(C)CCC(C(=O)NS(=O)(=O)Cc2ccc(C#N)cc2)(c2ccc(F)cc2)CC1 [Compound 68] = 10

Input CC(C)(C(=O)NS(=O)(=O)Cc1ccc(C#N)cc1)c1ccc(F)cc1 [Compound 13] . Output minimal effective concentration: 5

Kindly consider the entry below.
Value of minimal effective concentration reported for the compound N#Cc1ccc(CS(=O)(=O)NC(=O)C2(c3ccsc3)CCCCC2)cc1Br [Compound 106] is 1
